Assay: Volume of distribution at steady state in Sprague-Dawley rat at 2 mg/kg, iv
Assay type: ADME, organism-based
Conditions: in vivo, read-out: Vdss
Consider the cut-off 3 L/kg. If the recorded Vd is strictly smaller, the label is MET; if not, the label is NOT MET.

Is Vd strictly under 3 L/kg for the entry `CCCC[C@H](CN(O)C=O)C(=O)N1CC2(CC2)C[C@H]1C(=O)Nc1ncc(C)s1` ?
NOT MET

Is Vd strictly under 3 L/kg for the entry `CCCC[C@H](CN(O)C=O)C(=O)N1CC2(CC2)C[C@H]1C(=O)Nc1ccc(F)c[n+]1[O-]` ?
MET

Is Vd strictly under 3 L/kg for the entry `CCCC[C@H](CN(O)C=O)C(=O)N1CC2(CC2)C[C@H]1C(=O)Nc1cc(C(C)(C)C)on1` ?
MET

Is Vd strictly under 3 L/kg for the entry `CCCC[C@H](CN(O)C=O)C(=O)N1CC2(CC2)C[C@H]1c1nc(-c2cccnc2)no1` ?
MET

Is Vd strictly under 3 L/kg for the entry `CCCC[C@H](CN(O)C=O)C(=O)N1CC2(CC2)C[C@H]1C(=O)Nc1ccc(C)c(Nc2nccc(-c3cccnc3)n2)c1` ?
MET

###

Assay: Clearance in Sprague-Dawley rat at 10 mg/kg, po
Type: ADME, organism-based
Conditions: Sprague-Dawley, in vivo
For each entry below, report its CL/F value.
Expressed in mL/min/kg, but write only the number.

Query `CCCC[C@H](CN(O)C=O)C(=O)N1CC2(CC2)C[C@H]1C(=O)Nc1ncc(C)s1` yields CL/F of 82.3

Query `CCCC[C@H](CN(O)C=O)C(=O)N1CC2(CC2)C[C@H]1C(=O)Nc1ccc(F)c[n+]1[O-]` yields CL/F of 91.3

Query `CCCC[C@H](CN(O)C=O)C(=O)N1CC2(CC2)C[C@H]1c1nc(-c2cccnc2)no1` yields CL/F of 136

Query `CCCC[C@H](CN(O)C=O)C(=O)N1CC2(CC2)C[C@H]1C(=O)Nc1cc(C(C)(C)C)on1` yields CL/F of 90.6

Query `CCCC[C@H](CN(O)C=O)C(=O)N1CC2(CC2)C[C@H]1c1nc2ccccc2[nH]1` yields CL/F of 70.9

###

System: Staphylococcus epidermidis
Assay: Antibacterial activity against methicillin-resistant Staphylococcus epidermidis 14-1
Assay type: functional
For each entry below, report its MIC value.
Expressed in µg/mL, but write only the number.

Query `CCCC[C@H](CN(O)C=O)C(=O)N1CC2(CC2)C[C@H]1C(=O)Nc1ncccc1F` yields MIC of 0.25

Query `CCCC[C@H](CN(O)C=O)C(=O)N1CC2(CC2)C[C@H]1c1nnc(-c2ccccn2)o1` yields MIC of 1

Query `CCCC[C@H](CN(O)C=O)C(=O)N1CC2(CC2)C[C@H]1C(=O)Nc1ccc(F)c[n+]1[O-]` yields MIC of 0.03

###

Assay: AUC (0 to t) in Sprague-Dawley rat at 2 mg/kg, iv
Type: ADME, organism-based
Settings: Sprague-Dawley, in vivo
QUANTITY_KIND: AUC(0-t) (ng·h/mL)
Expressed in ng·h/mL, but write only the number.

Query `CCCC[C@H](CN(O)C=O)C(=O)N1CC2(CC2)C[C@H]1C(=O)Nc1ccc(C)c(Nc2nccc(-c3cccnc3)n2)c1` yields AUC(0-t) of 881

Query `CCCC[C@H](CN(O)C=O)C(=O)N1CC2(CC2)C[C@H]1c1nc2ccccc2[nH]1` yields AUC(0-t) of 1260

Query `CCCC[C@H](CN(O)C=O)C(=O)N1CC2(CC2)C[C@H]1c1nc(-c2cccnc2)no1` yields AUC(0-t) of 654

Query `CCCC[C@H](CN(O)C=O)C(=O)N1CC2(CC2)C[C@H]1C(=O)Nc1cc(C(C)(C)C)on1` yields AUC(0-t) of 1140

Query `CCCC[C@H](CN(O)C=O)C(=O)N1CC2(CC2)C[C@H]1C(=O)Nc1ccc(F)c[n+]1[O-]` yields AUC(0-t) of 1260

###

Experiment: Tmax in Sprague-Dawley rat at 2 mg/kg, iv
Type: ADME, organism-based
Conditions: in vivo
QUANTITY_KIND: Tmax (min)
Expressed in min, but write only the number.

Query `CCCC[C@H](CN(O)C=O)C(=O)N1CC2(CC2)C[C@H]1c1nc2ccccc2[nH]1` yields Tmax of 4.8

Query `CCCC[C@H](CN(O)C=O)C(=O)N1CC2(CC2)C[C@H]1c1nc(-c2cccnc2)no1` yields Tmax of 4.8

Query `CCCC[C@H](CN(O)C=O)C(=O)N1CC2(CC2)C[C@H]1C(=O)Nc1ncc(C)s1` yields Tmax of 4.8

Query `CCCC[C@H](CN(O)C=O)C(=O)N1CC2(CC2)C[C@H]1C(=O)Nc1cc(C(C)(C)C)on1` yields Tmax of 4.8

Query `CCCC[C@H](CN(O)C=O)C(=O)N1CC2(CC2)C[C@H]1C(=O)Nc1ccc(F)c[n+]1[O-]` yields Tmax of 8.4

Query `CCCC[C@H](CN(O)C=O)C(=O)N1CC2(CC2)C[C@H]1C(=O)Nc1ccc(C)c(Nc2nccc(-c3cccnc3)n2)c1` yields Tmax of 4.8

###

Test system: Escherichia coli
Experiment: Antibacterial activity against Escherichia coli 14-1
Format: functional
For each entry below, report its log10 of MIC value.
Hi team, quick reminder: these entries are log10 of MIC (µg/mL).

Query CO/N=C(\C(=O)N[C@@H]1C(=O)N2C(C(=O)[O-])=CCS[C@H]12)c1csc(N)n1.[Na+] [CEFTIZOXIME SODIUM] yields log10 of MIC of 0.60

Query `CCCC[C@H](CN(O)C=O)C(=O)N1CC2(CC2)C[C@H]1c1nnc(-c2ccccn2)o1` yields log10 of MIC of 2.11

Query `Cc1nc(NNC(=O)[C@H](CC2CCCC2)CN(O)C=O)c(F)c(N2CCN3CCOC[C@@H]3C2)n1` yields log10 of MIC of 1.81

Query `CCCC[C@H](CN(O)C=O)C(=O)N1CC2(CC2)C[C@H]1C(=O)Nc1ncc(C)s1` yields log10 of MIC of 1.51

Query `CCCC[C@H](CN(O)C=O)C(=O)N1CC2(CC2)C[C@H]1C(=O)Nc1cc(C(C)(C)C)on1` yields log10 of MIC of 1.81

Query `CO[C@H]1/C=C/O[C@@]2(C)Oc3c(C)c(O)c4c(O)c(c(/C=N/N5CCN(C)CC5)c(O)c4c3C2=O)NC(=O)/C(C)=C\C=C\[C@H](C)[C@H](O)[C@@H](C)[C@@H](O)[C@@H](C)[C@H](OC(C)=O)[C@@H]1C` yields log10 of MIC of 0.30

###

Assay: Half life in Sprague-Dawley rat at 10 mg/kg, po
Format: ADME, organism-based
Settings: Sprague-Dawley, in vivo
QUANTITY_KIND: half-life (h)
Expressed in h, but write only the number.

Query `CCCC[C@H](CN(O)C=O)C(=O)N1CC2(CC2)C[C@H]1c1nc(-c2cccnc2)no1` yields half-life of 1.28

Query `CCCC[C@H](CN(O)C=O)C(=O)N1CC2(CC2)C[C@H]1C(=O)Nc1cc(C(C)(C)C)on1` yields half-life of 4.52

Query `CCCC[C@H](CN(O)C=O)C(=O)N1CC2(CC2)C[C@H]1C(=O)Nc1ccc(F)c[n+]1[O-]` yields half-life of 4.94

Query `CCCC[C@H](CN(O)C=O)C(=O)N1CC2(CC2)C[C@H]1C(=O)Nc1ncc(C)s1` yields half-life of 5

Query `CCCC[C@H](CN(O)C=O)C(=O)N1CC2(CC2)C[C@H]1c1nc2ccccc2[nH]1` yields half-life of 4.46

###

Tested on: Rattus norvegicus
Experiment: Volume of distribution at steady state in Sprague-Dawley rat at 10 mg/kg, po
Type: ADME, organism-based
Settings: in vivo
QUANTITY_KIND: Vdss

Query `CCCC[C@H](CN(O)C=O)C(=O)N1CC2(CC2)C[C@H]1c1nc(-c2cccnc2)no1` yields Vdss of 15.1 L/kg

Query `CCCC[C@H](CN(O)C=O)C(=O)N1CC2(CC2)C[C@H]1c1nc2ccccc2[nH]1` yields Vdss of 27.4 L/kg

Query `CCCC[C@H](CN(O)C=O)C(=O)N1CC2(CC2)C[C@H]1C(=O)Nc1cc(C(C)(C)C)on1` yields Vdss of 36.2 L/kg

Query `CCCC[C@H](CN(O)C=O)C(=O)N1CC2(CC2)C[C@H]1C(=O)Nc1ccc(C)c(Nc2nccc(-c3cccnc3)n2)c1` yields Vdss of 1772 L/kg

Query `CCCC[C@H](CN(O)C=O)C(=O)N1CC2(CC2)C[C@H]1C(=O)Nc1ccc(F)c[n+]1[O-]` yields Vdss of 39.4 L/kg

Query `CCCC[C@H](CN(O)C=O)C(=O)N1CC2(CC2)C[C@H]1C(=O)Nc1ncc(C)s1` yields Vdss of 36.5 L/kg

Provenance of the data: ChEMBL document CHEMBL3822420
